// data source = ChEMBL document CHEMBL5634096

The molecules listed here are annotated with their pIC50.
target: Phosphatidylinositol 4,5-bisphosphate 3-kinase catalytic subunit delta isoform (Homo sapiens); assay: Inhibition of PI3Kdelta (unknown origin) by ADP-Glo luminescent kinase assay
Sequence (O00329 whole entry, canonical isoform): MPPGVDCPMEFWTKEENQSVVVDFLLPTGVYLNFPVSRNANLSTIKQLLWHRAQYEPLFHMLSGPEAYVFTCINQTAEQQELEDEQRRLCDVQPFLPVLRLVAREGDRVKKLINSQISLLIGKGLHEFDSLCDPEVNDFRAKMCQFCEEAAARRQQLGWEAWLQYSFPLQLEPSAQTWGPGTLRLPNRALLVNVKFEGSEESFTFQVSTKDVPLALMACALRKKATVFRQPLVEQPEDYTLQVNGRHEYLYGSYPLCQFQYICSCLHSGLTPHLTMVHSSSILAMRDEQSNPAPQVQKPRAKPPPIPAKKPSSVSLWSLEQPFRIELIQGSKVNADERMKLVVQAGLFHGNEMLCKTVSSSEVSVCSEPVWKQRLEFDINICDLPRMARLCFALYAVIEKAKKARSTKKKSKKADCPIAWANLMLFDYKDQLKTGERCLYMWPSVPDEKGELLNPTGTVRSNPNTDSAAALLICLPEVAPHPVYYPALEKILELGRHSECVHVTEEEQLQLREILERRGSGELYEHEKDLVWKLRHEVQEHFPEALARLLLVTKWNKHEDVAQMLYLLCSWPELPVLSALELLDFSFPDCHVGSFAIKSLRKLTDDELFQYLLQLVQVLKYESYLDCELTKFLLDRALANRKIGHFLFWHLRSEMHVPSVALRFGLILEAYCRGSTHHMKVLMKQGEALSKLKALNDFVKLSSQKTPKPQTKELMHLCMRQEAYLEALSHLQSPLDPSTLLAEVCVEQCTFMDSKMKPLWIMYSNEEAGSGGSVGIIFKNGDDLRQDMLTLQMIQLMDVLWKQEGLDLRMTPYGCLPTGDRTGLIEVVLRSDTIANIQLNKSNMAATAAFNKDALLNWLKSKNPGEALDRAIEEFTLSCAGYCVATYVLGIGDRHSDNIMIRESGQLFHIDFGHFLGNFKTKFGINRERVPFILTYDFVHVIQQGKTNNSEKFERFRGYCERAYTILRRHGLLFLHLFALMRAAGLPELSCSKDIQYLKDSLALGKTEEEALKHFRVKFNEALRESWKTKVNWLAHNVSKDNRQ
pIC50: −log10 of the molar value.
Test readout: pIC50

1) Nc1nc2cc(-c3ccc4ncc(N5C[C@@H]6OCCO[C@@H]6C5)nc4c3)ccc2o1	6.95
2) C[C@H](NC(=O)c1cnc2ccc(-c3ccc4oc(N)nc4c3)cn12)C(N)=O	6.94
3) Nc1nc2cc(-c3ccc4ncc(C(=O)N5CCOCC5)n4c3)ccc2o1	6.48

---

biological target: Phosphatidylinositol 4,5-bisphosphate 3-kinase catalytic subunit alpha isoform (Homo sapiens, UniProt P42336); assay: Inhibition of PI3Kalpha (unknown origin) by ADP-Glo luminescent kinase assay
Sequence (P42336 whole entry, canonical isoform): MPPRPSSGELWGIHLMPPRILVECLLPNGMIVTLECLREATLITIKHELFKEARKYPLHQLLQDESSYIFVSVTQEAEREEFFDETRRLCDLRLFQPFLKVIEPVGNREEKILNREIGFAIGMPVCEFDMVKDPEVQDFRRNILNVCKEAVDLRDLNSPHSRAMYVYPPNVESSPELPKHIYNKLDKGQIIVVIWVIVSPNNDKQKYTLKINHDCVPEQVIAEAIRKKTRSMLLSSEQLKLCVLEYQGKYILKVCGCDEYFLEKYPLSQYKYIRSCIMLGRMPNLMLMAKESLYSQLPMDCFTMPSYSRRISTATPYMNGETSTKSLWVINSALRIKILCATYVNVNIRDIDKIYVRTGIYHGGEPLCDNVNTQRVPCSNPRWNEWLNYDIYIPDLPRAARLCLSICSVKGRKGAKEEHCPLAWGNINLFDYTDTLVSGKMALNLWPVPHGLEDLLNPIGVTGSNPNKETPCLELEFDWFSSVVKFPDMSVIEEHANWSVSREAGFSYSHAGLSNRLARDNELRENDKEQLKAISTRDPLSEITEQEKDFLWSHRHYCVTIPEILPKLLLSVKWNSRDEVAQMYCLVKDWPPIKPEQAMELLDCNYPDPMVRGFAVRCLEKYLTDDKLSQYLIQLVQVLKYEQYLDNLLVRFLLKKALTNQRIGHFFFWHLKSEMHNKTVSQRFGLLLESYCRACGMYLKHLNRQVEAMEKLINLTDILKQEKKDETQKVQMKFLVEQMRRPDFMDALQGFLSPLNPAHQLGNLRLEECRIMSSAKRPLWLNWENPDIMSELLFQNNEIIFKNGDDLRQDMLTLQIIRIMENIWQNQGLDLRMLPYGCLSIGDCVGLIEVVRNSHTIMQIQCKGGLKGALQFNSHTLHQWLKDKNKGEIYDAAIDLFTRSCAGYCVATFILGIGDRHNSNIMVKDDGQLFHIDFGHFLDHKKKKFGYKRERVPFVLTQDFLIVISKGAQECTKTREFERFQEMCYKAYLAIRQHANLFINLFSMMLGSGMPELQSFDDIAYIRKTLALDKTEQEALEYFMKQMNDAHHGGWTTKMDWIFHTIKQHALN
pIC50: −log10 of the molar value.
The compounds listed here are annotated with their pIC50.
Test readout: pIC50

1. NC(=O)[C@H](Cc1ccccc1)NC(=O)c1cnc2ccc(-c3ccc4oc(N)nc4c3)cn12	7.95
2. NC(=O)C(NC(=O)c1cnc2ccc(-c3ccc4oc(N)nc4c3)cn12)c1ccccc1 (centres undefined)	7.71
3. Nc1nc2cc(-c3ccc4ncc(N5C[C@@H]6OCCO[C@@H]6C5)nc4c3)ccc2o1	8.60
4. NC(=O)[C@H](NC(=O)c1cnc2ccc(-c3ccc4oc(N)nc4c3)cn12)c1ccccc1	7.64
5. Nc1nc2cc(-c3ccc4nc(N5C[C@@H]6OCCO[C@@H]6C5)cnc4c3)ccc2o1	5.78
6. NC(=O)[C@H](Cc1ccc(O)cc1)NC(=O)c1cnc2ccc(-c3ccc4oc(N)nc4c3)cn12	5.45
7. Nc1nc2cc(-c3ccc4ncc(C(=O)N5C[C@H]6OCCO[C@@H]6C5)n4c3)ccc2o1 (single isomer, unassigned)	8.06
